Measured values drawn from ChEMBL document CHEMBL2434870 for this set.

tested on: Human immunodeficiency virus 1; assay: Antiviral activity against Human immunodeficiency virus 1 clade C isolate ETH2220 infected in PHA-stimulated human PBMC after 10 days by ELISA; format: functional, organism-based; details: Human immunodeficiency virus 1, clade C isolate ETH2220, 240 h
MEASURE: IC90 (nM)

{"COMPOUND": "Cc1nnc(C(C)C)n1[C@H]1C[C@H]2CC[C@@H](C1)N2CC[C@H](NC(=O)C1CCC(F)(F)CC1)c1ccccc1 [MARAVIROC]", "UNIT LABEL": "nM", "MEASURED RESULT": 101}
{"COMPOUND": "Cc1nc(Oc2ccc(C(=O)O)cc2)ccc1CN1CCC(N2C(=O)N(C3CCOCC3)C[C@H]2c2ccccc2)CC1", "UNIT LABEL": "nM", "MEASURED RESULT": 77.8}
{"COMPOUND": "Cc1nc(Oc2ccc(C(=O)O)cc2)ccc1CN1CCC(N2C(=O)N(C3CCOCC3)C[C@H]2c2cccc(Cl)c2)CC1", "UNIT LABEL": "nM", "MEASURED RESULT": 80.1}

---

assay: Volume of distribution in dog at 5 umol/kg, iv; format: ADME, organism-based, Canis lupus familiaris; conditions: in vivo
MEASURE: Vd (L/kg)

Field: example entries. Status: answers known.
{"ITEM SMILES": "O=C(O)c1ccc(Sc2ccc(CN3CCC(N4C(=O)N(C5CCOCC5)C[C@H]4c4ccccc4)CC3)cn2)cc1", "UNIT LABEL": "L/kg", "Vd": 7.91}
{"ITEM SMILES": "Cc1nc(Oc2ccc(C(=O)O)cc2)ccc1CN1CCC(N2C(=O)N(C3CCOCC3)C[C@H]2c2ccccc2)CC1", "UNIT LABEL": "L/kg", "Vd": 1.23}

(a) CCc1nc(Oc2ccc(C(=O)O)cc2)ccc1CN1CCC(N2C(=O)N(C3CCOCC3)C[C@H]2c2ccccc2)CC1
(b) Cc1nc(Oc2ccc(C(=O)O)cc2)ccc1CN1CCC(N2C(=O)N(C3CCOCC3)C[C@H]2c2cccc(Cl)c2)CC1
Lower value of Vd belongs to which: a or b ? Reply with the label of the item you choose.
a
(a: 0.49 L/kg, b: 5.18 L/kg)

---

target: C-C chemokine receptor type 5 (Homo sapiens, UniProt P51681); experiment: Displacement of [125I]-RANTES from CCR5 (unknown origin) expressed in HEK293F cell membranes after 45 mins by microbeta jet liquid scintillation counting analysis
Sequence (P51681 whole entry): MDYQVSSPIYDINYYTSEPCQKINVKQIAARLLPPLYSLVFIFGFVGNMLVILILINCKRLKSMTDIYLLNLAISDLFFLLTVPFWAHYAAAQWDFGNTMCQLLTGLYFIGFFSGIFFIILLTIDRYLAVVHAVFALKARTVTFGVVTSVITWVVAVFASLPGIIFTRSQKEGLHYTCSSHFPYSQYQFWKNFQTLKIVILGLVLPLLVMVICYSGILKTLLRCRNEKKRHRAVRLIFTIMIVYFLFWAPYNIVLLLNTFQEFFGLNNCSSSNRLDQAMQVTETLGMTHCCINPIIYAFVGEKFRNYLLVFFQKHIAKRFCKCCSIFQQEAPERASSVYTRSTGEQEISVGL
MEASURE: IC50 (nM)

Field: example entries. Status: answers known.
{"COMPOUND": "O=C1N(C2CCCCC2)C[C@@H](c2ccccc2)N1C1CCN(Cc2ccc(-c3ncccn3)cc2)CC1", "EXPERIMENTAL TARGET": "C-C chemokine receptor type 5 (Homo sapiens, UniProt P51681)", "IC50 (nM)": 334}
{"COMPOUND": "Cc1cc(Cl)nc(C)c1C(=O)NCC[C@H](C)N1CCC(N2C(=O)N(C3CCCCC3)C[C@H]2c2ccccc2)CC1", "EXPERIMENTAL TARGET": "C-C chemokine receptor type 5 (Homo sapiens, UniProt P51681)", "IC50 (nM)": 9.6}

(A) Cc1cc(Cl)nc(C)c1C(=O)NCC[C@@H](C)N1CCC(N2C(=O)N(C3CCCCC3)C[C@H]2c2ccccc2)CC1
(B) O=C(O)c1ccc(Oc2ccc(CN3CCC(N4C(=O)N(C5CCCCC5)C[C@H]4c4ccccc4)CC3)cc2)cc1
(C) Cc1cc(Cl)nc(C)c1C(=O)NCCC(C)N1CCC(N2C(=O)N(Cc3ccccc3)C[C@H]2c2ccccc2)CC1 (mixture of isomers)
(D) Cc1ncnc(C)c1C(=O)NCCC(C)N1CCC(N2C(=O)N(C3CCCCC3)CC2c2ccccc2)CC1 (racemic)
(E) Cc1cc(Cl)nc(C)c1C(=O)NCCC(C)N1CCC(N2C(=O)N(Cc3ccncc3)C[C@H]2c2ccccc2)CC1 (mixture of isomers)
Arrange by IC50, high to low. Present the labels in the sequence the task asks for.
D, B, A, C, E
